For each entry below, report its IC50 value.
experiment: Antiproliferative activity against human BCG823 cells after 48 hrs by MTT assay; format: functional, cell-based; details: BCG823, 48 h
All answers are understood in µM, so give the number only.

Kindly note the recorded IC50 for COc1c(OCCCN2CCCC2)cc2oc(-c3ccccc3)cc(=O)c2c1O , which is 12

response.value for COc1c(OCCCCN2CCCC2)cc2oc(-c3ccccc3)cc(=O)c2c1O (field: IC50) = 9.5

compound CCN(CC)CCOc1cc2oc(-c3ccccc3)cc(=O)c2c(O)c1OC , IC50 observed: 13
